# test-target: NHERF4_1, Q86UT5-2
# Sequence (Q86UT5 other isoform, or with tags, fused parts or gaps): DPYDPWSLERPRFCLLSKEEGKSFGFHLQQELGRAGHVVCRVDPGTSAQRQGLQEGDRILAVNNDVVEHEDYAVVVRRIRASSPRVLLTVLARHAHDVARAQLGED
# assay-summary: holdup assay
# Set-up: key: below the threshold = too weak to quantify, mostly under pKd 3.1 to 4
# stated-conditions: plain residues with an end cap or a label only (N-terminal biotin on a linker: ado-ado)
test-readout: pKd

1) DSEEELPTRL [GRK6, P43250] :: 4.22
2) NISARRFTLC [FAM167B, Q9BTA0] :: 4.27
3) AHGSTRDQSI [KCNB1, Q14721] :: 3.54
4) EAVTVESTSL [SLC22A11, Q9NSA0] :: 4.55
5) RSPVATATSC [DUSP5, Q16690] :: 3.59
